# test_protocol: Evalaution of pharmacokinetic parameters for Glimepiride following multiple doses of Glimepiride […] to healthy subjects and to patients with type 2 diabetes
# Type: ADME, organism-based
# Parameters: dose 4 mg, dose 8 mg, route oral
# cond: human, in vivo; dose 1-8 mg, dosed compound id 27, dosed compound name GLIMEPIRIDE, regimen Multiple dose, route oral, study dosing duration 10 days, tissue Plasma
assay_endpoint: half-life (h)
Return type: number; implicit unit h.

Dear colleague, I am looking for the recorded half-life of the following compound: CCC1=C(C)CN(C(=O)NCCc2ccc(S(=O)(=O)NC(=O)N[C@H]3CC[C@H](C)CC3)cc2)C1=O [GLIMEPIRIDE]
9.2

====

# test_protocol: Pharmacokinetic parameters evaluated following intravenous […] of Glimepiride […] to normal subjects.
# Format: ADME, organism-based
# cond: human, in vivo, dosed compound id 27, dosed compound name GLIMEPIRIDE, tissue Plasma
assay_endpoint: Vd (L)
Quick reminder: number only, in L, skip the unit.

Endpoint output: Vd of CCC1=C(C)CN(C(=O)NCCc2ccc(S(=O)(=O)NC(=O)N[C@H]3CC[C@H](C)CC3)cc2)C1=O [GLIMEPIRIDE] . Value?
8.8

====

# test_protocol: Evalaution of pharmacokinetic parameters for Glimepiride following single oral […] of Glimepiride tablets […] to healthy subjects and to patients with type 2 diabetes.
# Format: ADME, organism-based
# Design: dose 4 mg, dose 1 mg, dose 2 mg, dose 8 mg, route oral
# cond: human, in vivo; dose 1-8 mg, dosed compound id 27, dosed compound name GLIMEPIRIDE, regimen Single dose, route oral, tissue Plasma
assay_endpoint: CL/F (mL/min)
Please state the figure in mL/min; there is no need to write the unit.

Would you mind telling me what CL/F value was observed for CCC1=C(C)CN(C(=O)NCCc2ccc(S(=O)(=O)NC(=O)N[C@H]3CC[C@H](C)CC3)cc2)C1=O [GLIMEPIRIDE] ?
52.1

====

# test_protocol: Evalaution of pharmacokinetic parameters for Glimepiride following multiple doses of Glimepiride […] to healthy subjects and to patients with type 2 diabetes
# Assay type: ADME, organism-based
# Set-up: dose 4 mg, dose 8 mg, route oral
# cond: human, in vivo; dose 1-8 mg, dosed compound id 27, dosed compound name GLIMEPIRIDE, regimen Multiple dose, route oral, study dosing duration 10 days, tissue Plasma
assay_endpoint: CL/F (mL/min)
Write the value in mL/min as a bare number.

Would you kindly share the measured CL/F for CCC1=C(C)CN(C(=O)NCCc2ccc(S(=O)(=O)NC(=O)N[C@H]3CC[C@H](C)CC3)cc2)C1=O [GLIMEPIRIDE] ?
52.7

====

# test_protocol: Evalaution of pharmacokinetic parameters for Glimepiride following single oral […] of Glimepiride tablets […] to healthy subjects and to patients with type 2 diabetes.
# Format: ADME, organism-based
# Set-up: dose 4 mg, dose 1 mg, dose 2 mg, dose 8 mg, route oral
# cond: human, in vivo; dose 1-8 mg, dosed compound id 27, dosed compound name GLIMEPIRIDE, regimen Single dose, route oral, tissue Plasma
assay_endpoint: Vd/F (L)
Respond with the bare value in L.

So what does the record say about Vd/F for CCC1=C(C)CN(C(=O)NCCc2ccc(S(=O)(=O)NC(=O)N[C@H]3CC[C@H](C)CC3)cc2)C1=O [GLIMEPIRIDE] ?
21.8

====

# test_protocol: Evalaution of pharmacokinetic parameters for Glimepiride following single oral […] of Glimepiride tablets […] to healthy subjects and to patients with type 2 diabetes.
# Format: ADME, organism-based
# Design: dose 4 mg, dose 1 mg, dose 2 mg, dose 8 mg, route oral
# cond: human, in vivo; dose 1 mg, dosed compound id 27, dosed compound name GLIMEPIRIDE, gender male and female, regimen Single dose, route oral, tissue Plasma
assay_endpoint: half-life
Could you write the number and then its unit?

Find the recorded half-life belonging to CCC1=C(C)CN(C(=O)NCCc2ccc(S(=O)(=O)NC(=O)N[C@H]3CC[C@H](C)CC3)cc2)C1=O [GLIMEPIRIDE] and report it.
3.1 h

====

# test_protocol: Evalaution of pharmacokinetic parameters for Glimepiride following multiple doses of Glimepiride […] to healthy subjects and to patients with type 2 diabetes
# Assay type: ADME, organism-based
# Parameters: dose 4 mg, dose 8 mg, route oral
# cond: human, in vivo, po; dosed compound id 27, dosed compound name GLIMEPIRIDE, regimen Multiple dose, study dosing duration 10 days, tissue Plasma
assay_endpoint: Cmax
Please format your answer as a value with the unit trailing.

Give the measured Cmax of CCC1=C(C)CN(C(=O)NCCc2ccc(S(=O)(=O)NC(=O)N[C@H]3CC[C@H](C)CC3)cc2)C1=O [GLIMEPIRIDE] .
578 ng/mL

====

# test_protocol: Evalaution of pharmacokinetic parameters for Glimepiride following multiple doses of Glimepiride […] to healthy subjects and to patients with type 2 diabetes
# Assay type: ADME, organism-based
# Parameters: dose 4 mg, dose 8 mg, route oral
# cond: human, in vivo; dose 1-8 mg, dosed compound id 27, dosed compound name GLIMEPIRIDE, regimen Multiple dose, route oral, study dosing duration 10 days, tissue Plasma
assay_endpoint: Tmax (h)
Numeric answer only, unit h assumed.

# input compound: CCC1=C(C)CN(C(=O)NCCc2ccc(S(=O)(=O)NC(=O)N[C@H]3CC[C@H](C)CC3)cc2)C1=O [GLIMEPIRIDE] ; wanted: its Tmax
2.8
